# method: folding stability dG unfold (combined trypsin and chymotrypsin); higher = more stable
Classify as follows. Reported folding stability dG unfold greater than or equal to 0.8 kcal/mol: True. Reported folding stability dG unfold below: False.

[[record]]
query_sequence = "SAGGDKKKKEVEFRFPGMPFRVSIQVDPDEGKIPIEIYNPDNGQSLDDLKSNPAMQQMVREAANALKSAGGS [r16_96_TrROS]"
qualitative_label = "False"

[[record]]
query_sequence = "SAGGSGSIVIKSIEPRLRLERLPNGELREVKEVEVDIEVEVDPETAPEEEIEAVREEAEKLAEELSSAGGSA [r2_40_JUSTAS]"
qualitative_label = "False"

[[record]]
query_sequence = "SAGGSAGGSAGGYKVKVYNPENGKPQEIPLPPNDIPELLDKLPNGPWWIRVKDPDRWIPLSAGGSAGGSAGG [r7_188_TrROS]"
qualitative_label = "False"

[[record]]
query_sequence = "SAGGSAGGKIKVEIEYNGEKKEMTLDEIKALLKKNLPPNATIRVKKNGKTIPLKKVKVKKLKKKSAGGSAGG [r6_936_TrROS_Hall]"
qualitative_label = "True"

[[record]]
query_sequence = "SQNGGPKRKVTITIIIVIPPGQRNPDGKPRPSVEELARYLQKELQEQFPGNKDVKIDITIIPLGDPEQIKSA [r9_329_TrROS]"
qualitative_label = "True"

[[record]]
query_sequence = "SAGMSTSGPIFVPEGPPAIYISYPKPNVKFVVPVSEGIEAVKKRAEEPGLNPVIIKVVETPPGVPVTLSAGG [r19_386_JUSTAS]"
qualitative_label = "False"

[[record]]
query_sequence = "SAGGSAETYPVTVVVPLPPGGRELPVEELEDLVRETLANVPDLPDVKVEVTLLEPEGRALVRVEFPSAGGSA [r15_1029_TrMRF]"
qualitative_label = "False"

[[record]]
query_sequence = "SAGGSAGGSAEPDIEVVVTPVPGPYGPLYYRVEVRIPEAGRTVFTYARLDDPEEIEGIPIESAGGSAGGSAG [r3_432_TrMRF]"
qualitative_label = "False"

[[record]]
query_sequence = "SKPTLTLKLTVVVKDENGEKKTVTLTIPVSEEELEKLLKEIAKELGLKDVKVVKIEKNKNGFIKITVEVKSA [r9_1101_TrROS_Hall]"
qualitative_label = "True"

[[record]]
query_sequence = "SAGGSAGGSMKKLKITFPPGMTEEELKKKIEELAKKLNLEVVKIKSIEYDKENKEVTITVEIKSAGGSAGGS [r12_131_TrROS_Hall]"
qualitative_label = "True"

[[record]]
query_sequence = "SAGGSAGGSAGGAEITIEEKDGKLTLTVRLPDGYVATATFDPNGKWTIKEIKVYKLPEGLSAGGSAGGSAGG [r7_826_TrROS_Hall]"
qualitative_label = "True"

[[record]]
query_sequence = "SAGSMKLLILATSYPPDGSTTTKPIFGTEEDLKAAVEALPDGEKAATIIEVSEEGLKTIKTETRPPSLGSAG [r5_970_JUSTAS]"
qualitative_label = "False"

[[record]]
query_sequence = "SAGGSAGGSAGGPIKVETEPYPDGYHRVEIMLPGNGQKKEIHFPNGQTPEQAKDWIKEWSAGGSAGGSAGGS [r10_825_TrROS]"
qualitative_label = "False"

[[record]]
query_sequence = "SAGGSAGGSAMLIVGGADPEGAAEAAEEFIAAIEKAAEELGIPPEHIEIPVLIAEPGEAPGSAGGSAGGSAG [r3_249_TrMRF]"
qualitative_label = "True"

[[record]]
query_sequence = "SAGGSAGGSAGGQIRDPDGRKWIRVKGASPNKIKDELSELNPNVEIITNPDPNEMWIRIPSAGGSAGGSAGG [r7_370_TrROS]"
qualitative_label = "False"

[[record]]
query_sequence = "SAGGSAGGSAGGSNPNKPKEFYRIEYTHGGKPHTHMFPPNEPIPPGPNMKVDPFPADDLSAGGSAGGSAGGS [r4_107_TrROS]"
qualitative_label = "False"

[[record]]
query_sequence = "SAGGSAGGSAGATVLQQGTATPPDGTTVTFNYNITLPSDVLISVDKNPPNPDLVTKIEAGSAGGSAGGSAGG [r11_781_JUSTAS]"
qualitative_label = "False"

[[record]]
query_sequence = "SAGGSAGGSMEITVTLPPDQTAEDAIAALPSEYKNVTVLETSTTFPPTTDETPTVTLTIKVTKSAGGSAGGS [r12_822_JUSTAS]"
qualitative_label = "False"

[[record]]
query_sequence = "SAGHPWMFRAKVEYDDGKPVGEREINIPGMPIDDIASDLFNEPGLRKVKIEFYWMDGEPQEIEIPVKPSAGG [r19_269_TrROS]"
qualitative_label = "False"

[[record]]
query_sequence = "SAGGMVEIELEVDGKKIKITYDKETGKITIEIDGKKIEVELPEEDKGKSKEELLKKALEKAKEELKKSAGGS [r16_215_TrROS_Hall]"
qualitative_label = "True"

[[record]]
query_sequence = "SAGGSKIPLDNIKVITIMYNPKEGMYWISIRFPNNGKEVVFPYEDAPKILEKFPEIKEIEVYPFPPSAGGSA [r2_159_TrROS]"
qualitative_label = "True"

[[record]]
query_sequence = "SAGGMPVPVLIVVPEDKIEEIIKKIREETDEDVEIKAFKLPDGRVLLLITFNDPQLAEDFLKKFGFGSAGGS [r16_172_TrMRF]"
qualitative_label = "True"

[[record]]
query_sequence = "SAGGGEVKKVTYVVVIELPPDPETGEPHPLPLVLEREYPADDPEAVESDIKKALDEIDIPEEAKEALSAGGS [r16_40_TrMRF]"
qualitative_label = "False"

[[record]]
query_sequence = "SAGGSITISMPWNDPEKAAKALEEAFGVDVPPKVERDPGNGWYTITLPNLGRKIQIDGNKVKIEPPSAGGSA [r2_205_TrROS]"
qualitative_label = "False"

[[record]]
query_sequence = "SAGGSAGGSAGGRITINPENGMVQIKGPNGNQHTFPMDDASELQKEFGLPNIDIEVFPPNSAGGSAGGSAGG [r7_235_TrROS]"
qualitative_label = "False"

[[record]]
query_sequence = "SAGGSAGGSAGGSKVNDVTAEKNFLVFTEDGRVLGKGEVERAFAAGAGPIGAVPLPPGASAGGSAGGSAGGS [r4_47_TrMRF]"
qualitative_label = "False"

[[record]]
query_sequence = "SAELVLASVEKKGDEVIAVTAFPDGLFVKVKTKDGKIFAAPLPAENIGPQVEALKKAFPGVEVEPFLAESAG [r14_528_TrMRF]"
qualitative_label = "False"

